Molecular target: Toll-like receptor 1/2 (Homo sapiens, UniProt O60603+Q15399)
Sequence (O60603 whole entry): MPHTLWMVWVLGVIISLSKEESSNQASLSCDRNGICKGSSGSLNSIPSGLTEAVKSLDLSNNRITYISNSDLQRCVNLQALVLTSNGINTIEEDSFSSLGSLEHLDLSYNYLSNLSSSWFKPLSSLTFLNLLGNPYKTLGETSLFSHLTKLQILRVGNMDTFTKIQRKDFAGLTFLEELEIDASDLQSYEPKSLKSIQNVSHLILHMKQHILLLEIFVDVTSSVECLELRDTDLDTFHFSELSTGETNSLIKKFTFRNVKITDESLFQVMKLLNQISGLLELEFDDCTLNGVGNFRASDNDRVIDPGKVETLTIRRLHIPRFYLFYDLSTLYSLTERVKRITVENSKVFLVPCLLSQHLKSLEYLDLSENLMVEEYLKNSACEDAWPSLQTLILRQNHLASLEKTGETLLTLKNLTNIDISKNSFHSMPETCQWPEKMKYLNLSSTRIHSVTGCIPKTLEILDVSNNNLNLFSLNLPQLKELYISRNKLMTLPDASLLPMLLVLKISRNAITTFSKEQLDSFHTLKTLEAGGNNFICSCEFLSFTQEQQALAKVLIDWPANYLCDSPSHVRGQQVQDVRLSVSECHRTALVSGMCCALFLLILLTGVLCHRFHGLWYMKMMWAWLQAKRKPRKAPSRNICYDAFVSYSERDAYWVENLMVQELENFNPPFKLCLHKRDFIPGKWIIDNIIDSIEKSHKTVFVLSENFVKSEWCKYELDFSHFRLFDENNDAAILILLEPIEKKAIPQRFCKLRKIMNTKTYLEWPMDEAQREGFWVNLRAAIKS
Sequence (Q15399 whole entry): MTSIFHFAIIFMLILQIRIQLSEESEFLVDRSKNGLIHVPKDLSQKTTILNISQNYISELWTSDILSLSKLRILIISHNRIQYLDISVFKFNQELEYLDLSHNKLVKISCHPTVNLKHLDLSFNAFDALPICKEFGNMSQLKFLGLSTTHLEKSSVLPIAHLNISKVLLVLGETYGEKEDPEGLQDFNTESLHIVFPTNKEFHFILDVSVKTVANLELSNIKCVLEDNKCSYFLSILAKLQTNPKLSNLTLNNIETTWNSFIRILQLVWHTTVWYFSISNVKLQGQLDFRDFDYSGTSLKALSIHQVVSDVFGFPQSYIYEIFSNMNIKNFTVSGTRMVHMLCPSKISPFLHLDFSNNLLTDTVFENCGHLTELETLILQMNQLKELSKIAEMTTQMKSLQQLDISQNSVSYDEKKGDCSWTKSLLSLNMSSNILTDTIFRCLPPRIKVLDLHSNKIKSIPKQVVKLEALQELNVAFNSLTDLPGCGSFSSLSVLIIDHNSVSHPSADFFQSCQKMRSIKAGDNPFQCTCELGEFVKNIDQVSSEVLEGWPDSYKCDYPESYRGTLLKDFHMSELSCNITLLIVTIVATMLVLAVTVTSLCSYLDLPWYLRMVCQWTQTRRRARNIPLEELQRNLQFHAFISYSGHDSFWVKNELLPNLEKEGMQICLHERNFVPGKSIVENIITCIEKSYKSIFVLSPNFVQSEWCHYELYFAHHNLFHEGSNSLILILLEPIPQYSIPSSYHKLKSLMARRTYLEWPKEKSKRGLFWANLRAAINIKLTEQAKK
Test: Agonist activity at human TLR2/TLR1 transfected in HEK293T cells incubated for 24 hrs by dual luciferase reporter gene assay
Provide the reported EC50 of each item.
Numbers only, in nM.

structure_smiles_string=CNc1ccc([N+](=O)[O-])cc1-n1cnc(-c2ccc(C(F)(F)F)cc2O)c1 obs_value=35

Query: Form field - read-out: EC50; system: Toll-like receptor 1/2 (Homo sapiens, UniProt O60603+Q15399); submitted item: "O=[N+]([O-])c1ccc(F)c(-c2nc(C3=Cc4ccccc4OC3)no2)c1"
Result: 30.1
